These entries and their values trace back to patent US20250027068.

molecular target: pooled human IgG
observationType: Enzyme Activity Endpoint Assay: Fc (ng/µL)
Your answer should be a plain number; it is taken to be in ng/µL.

Solved entries:
>>> recordednumber("PRT-54 (protein) MANQEIRYSEVTPYHVTSVWTKGVTPPANFTQGEDVFHAPYVANQGWYDITKTFNGKDDLLCGAATAGNMLHWWFDQNKDQIDRYLEEHPEKQKINFNGEQMFDVKEAIDTKNHQLDSKLFEYFKEKAFPYLSTKHLGVFPDLVIDMFINGYRLSLTNHGPTPVKEGSKDPRGGFFDAVFTRGDQSKLLTSRHDFKEKNLKEISDLIKKELTEGKALGLSHTYANVRINHVINLWGADFDSNGNLKAIYVTDSDSNASIGMKKYFVGVNSAGKVAISAKEIKEDNIGAQVLGLFTLSTGQDSWNQTN")
24
>>> recordednumber("PRT-286 (protein) MVTSVWTKGVTPPAKFTQGEDVFHAPYDANQGWYDITKTFNGKDDLLCGAATAGNMLHWWFDQNKEKIEAYLKKHPDKQKIMFGDQELLDVRKVINTKGDQTNSELFNYFRDKAFPNLSARRIGVMPDLVLDMFINGYYLNVYKTQTTDVNRTYQEKDRRGGIFDAVFTRGDQSKLLTSRHDFKEKNLKEISDLIKKELTEGKALGLSHTYANVRISHVINLWGADFDSNGNLKAIYVTDSDSNASIGMKKYFVGVNSSGKVAISAKEIKEDNIGAQVLGLFTLSTGQDSWNQTN")
352
>>> recordednumber("PRT-23 (protein) MANQEIRYSEVTPYHVTSVWTKGVTPPANFTQGEDVFHAPYVANQGWYDITKTFNGKDDLLCGAATAGNMLHWWFDQNKDQIERYLKEHPEKQKINFNGEQMFDVKEAIDTKNSQTDSKLFEYFKEKAFPYLSTKHLGVFPDHVIDMFINGYRLSLTNHGPTPVKEGSKDPRGGIFDAVFTRGDQSKLLTSRHDFKEKNLKEISDLIKKELTEGKALGLSHTYANVRINHVINLWGADFDSNGNLEAIYVTDSDSNASIGMKKYFVGVNSAGKVAISAKEIKEDNIGAQVLGLFTLSTGQDIWNQTN")
125

Quick one: Enzyme Activity Endpoint Assay: Fc of PRT-592 (protein) MANQEIRYSEETPSTITSVWTKGVTPPTDFIQNEDVLHAPYIANQGWYDITKTFNGKDDLLCGAATAGNMLHWWFDQNKEQIENYLKKHPEKQKINFNGEQMFDVKEAIDTKNSQTDSALFEYFKDKAFPYLSTKHLGVFPDHVIDMFINGYRLSLTNHGPTPVKRGTKDPRGGIFDAVFTRGDQSKLLTSRHDFKEKTLNEISDLIKQELTEGKALGLSHTYANVRINHVINLWGADFNAEGNLEAIYVTDSDSNASIGMKKYYVGVNSAGKVAISAKEIEGDNIGAQVLGLFTLSTGQDIWNQTNLEHHHHHH ?
359
